ASSAY_TARGET: D-amino-acid oxidase (Homo sapiens)
ASSAY_NOTES: Binding affinity to human recombinant DAAO at 496 nm spectral modification by spectrophotometric analysis in presence of FAD
pKd: −log10 of the molar value.
OBSERVED_PROPERTY: pKd

- MOLECULE: "O=c1oc2ccccc2cc1O [3-HYDROXYCOUMARIN]"
  ASSAY_TARGET: "D-amino-acid oxidase (Homo sapiens)"
  MEAS_VALUE: 5.25

----------
ASSAY_TARGET: D-amino-acid oxidase (Sus scrofa)
Sequence (P00371 whole entry): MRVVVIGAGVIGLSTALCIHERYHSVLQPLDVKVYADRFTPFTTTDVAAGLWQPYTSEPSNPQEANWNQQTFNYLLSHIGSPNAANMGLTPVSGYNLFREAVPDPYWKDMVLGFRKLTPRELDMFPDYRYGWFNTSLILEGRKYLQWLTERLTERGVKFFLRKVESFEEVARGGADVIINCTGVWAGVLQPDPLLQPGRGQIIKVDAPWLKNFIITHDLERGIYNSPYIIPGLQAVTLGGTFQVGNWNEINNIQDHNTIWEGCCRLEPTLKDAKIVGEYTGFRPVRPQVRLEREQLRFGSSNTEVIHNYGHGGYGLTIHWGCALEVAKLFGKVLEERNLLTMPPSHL
ASSAY_NOTES: Competitive inhibition of pig kidney DAAO in presence of D-alanine
OBSERVED_PROPERTY: Ki (µM)

- MOLECULE_SMILES: "O=C(O)c1cc2ccccc2[nH]1"
  ASSAY_TARGET: "D-amino-acid oxidase (Sus scrofa)"
  UNIT_ANNOTATION: "µM"
  MEAS_VALUE: 3.4

----------
ASSAY_TARGET: UniProt P14920
ASSAY_NOTES: Inhibition of DAAO (unknown origin)
OBSERVED_PROPERTY: IC50

- MOLECULE_SMILES: "O=C(O)c1cc2sccc2[nH]1"
  MEAS_VALUE: "5.37 nM"

----------
ASSAY_TARGET: UniProtKB P14920
ASSAY_NOTES: Binding affinity to human recombinant DAAO at 600 nm spectral modification by spectrophotometric analysis in presence of FAD
pKd: −log10 of the molar value.

- MOLECULE_SMILES: "O=C(O)c1cc2occ(CCc3ccccc3)c2[nH]1"
  pKd: 5.49

----------
ASSAY_TARGET: D-amino-acid oxidase (Homo sapiens)
ASSAY_NOTES: Binding affinity to human recombinant DAAO at 440 nm spectral modification by spectrophotometric analysis in presence of FAD
OBSERVED_PROPERTY: Kd (µM)

- MOLECULE_SMILES: "O=C(O)c1cc2occ(CCc3ccccc3)c2[nH]1"
  OBSERVED_PROPERTY: "Kd"
  MEAS_VALUE: 4.8

----------
ASSAY_TARGET: D-amino-acid oxidase (Homo sapiens, UniProt P14920)
Sequence (P14920 whole entry): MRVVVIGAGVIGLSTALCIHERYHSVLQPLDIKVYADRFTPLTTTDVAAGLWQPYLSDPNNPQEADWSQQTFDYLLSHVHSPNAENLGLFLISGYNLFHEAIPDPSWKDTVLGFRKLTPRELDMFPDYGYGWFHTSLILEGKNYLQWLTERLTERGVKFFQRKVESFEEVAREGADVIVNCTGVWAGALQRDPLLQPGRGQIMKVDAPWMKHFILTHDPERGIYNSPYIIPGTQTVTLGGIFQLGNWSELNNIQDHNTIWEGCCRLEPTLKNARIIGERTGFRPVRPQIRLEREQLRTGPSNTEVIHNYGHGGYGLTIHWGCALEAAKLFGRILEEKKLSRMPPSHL
ASSAY_NOTES: Binding affinity to human recombinant DAAO at 395 nm spectral modification by spectrophotometric analysis in presence of FAD
pKd: −log10 of the molar value.
OBSERVED_PROPERTY: pKd

- MOLECULE_SMILES: "Oc1noc2cc(Cl)c(Cl)cc12"
  MEAS_VALUE: 5.40

----------
ASSAY_TARGET: D-amino-acid oxidase (Homo sapiens)
ASSAY_NOTES: Binding affinity to human recombinant DAAO at 498 nm spectral modification by spectrophotometric analysis in presence of FAD

- MOLECULE_SMILES: "Oc1noc2cc(Cl)c(Cl)cc12"
  Kd: "4.2 µM"

Value source: ChEMBL document CHEMBL2375208
